B1: library; numbered along this chain (parent)
chain: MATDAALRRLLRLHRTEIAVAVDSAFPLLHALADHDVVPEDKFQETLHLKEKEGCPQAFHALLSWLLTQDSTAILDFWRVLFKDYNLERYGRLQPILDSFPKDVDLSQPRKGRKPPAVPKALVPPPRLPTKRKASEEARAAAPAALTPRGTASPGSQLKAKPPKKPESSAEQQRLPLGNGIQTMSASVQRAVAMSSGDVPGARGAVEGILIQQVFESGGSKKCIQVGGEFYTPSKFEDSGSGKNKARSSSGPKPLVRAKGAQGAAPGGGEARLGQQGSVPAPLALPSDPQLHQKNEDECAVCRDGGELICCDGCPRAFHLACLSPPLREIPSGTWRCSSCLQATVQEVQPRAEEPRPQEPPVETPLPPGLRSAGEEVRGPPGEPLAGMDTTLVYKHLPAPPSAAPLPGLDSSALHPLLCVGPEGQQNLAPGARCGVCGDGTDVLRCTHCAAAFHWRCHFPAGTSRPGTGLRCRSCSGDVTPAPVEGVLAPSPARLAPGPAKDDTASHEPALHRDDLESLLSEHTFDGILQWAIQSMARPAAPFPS

# Variants of: B1
# protocol: AIRE transcriptional activation functional score (insulin promoter-GFP; nonsense median 0, synonymous median 1) (normalised score); higher = higher AIRE activity (more reporter activation)
# experimental-setup: with insulin promoter-GFP reporter in HEK293
Class assignment keyed on AIRE transcriptional activation functional score, ranges bin 1 (below 0.2), bin 2 (0.2 to below 0.8), bin 3 (0.8 or more)

// known answers, use as guide
A33L : bin 1
E375R : bin 3
G333N : bin 2
P126Q : bin 1

[in] Category lookup for the variant `S372Y`
[out] bin 3

[in] Category lookup for the variant `K161V`
[out] bin 3

[in] Category lookup for the variant `L385P`
[out] bin 2

[in] Category lookup for the variant `W531K`
[out] bin 1

[in] Category lookup for the variant `K235H`
[out] bin 2
